assayProtocol: Oral bioavailability in cynomolgus monkey at 1 mg/kg and 0.1 mg/kg, iv administered as cassette dose by LC-MS/MS analysis
Assay type: ADME, organism-based, Macaca fascicularis
assaySetup: in vivo
observedProperty: bioavailability (%)

Consider the reported bioavailability for these molecules:
CCCCN(c1nc2c(CO)cccc2o1)[C@H](C)c1ccc(-c2ccccc2-c2nnn[nH]2)cc1	0.8
C[C@H](c1ccc(-c2cc(F)ccc2-c2nc(=O)o[nH]2)cc1)N(CC1CC1)c1nc2c(C(=O)O)cccc2o1	82

[1] CCCCN(c1nc2ccccc2o1)[C@H](C)c1ccc(-c2ccccc2-c2nnn[nH]2)cc1
[2] Cc1ccc(-c2nc(=O)o[nH]2)c(-c2ccc([C@@H](C)N(CC3CC3)c3nc4c(C(=O)O)cccc4o3)cc2)c1
Query :: # min-compare on bioavailability between 1 and 2 Answer by quoting the chosen item's label.
Result :: 1

[A] CCCCN(c1nc2c(C(=O)N(C)C)cccc2o1)[C@H](C)c1ccc(-c2ccccc2-c2nnn[nH]2)cc1
[B] CCCCN(c1nc2c(C(=O)O)cccc2o1)[C@H](C)c1ccc(-c2cc(Cl)ccc2-c2nc(=O)o[nH]2)cc1
[C] C[C@H](c1ccc(-c2ccccc2-c2nc(=O)o[nH]2)cc1)N(CC1CC1)c1nc2c(C(=O)O)cccc2o1
Query :: Arrange the 3 entries by bioavailability so the values rise. State the ranking by listing the labels in the requested order.
Result :: A, B, C
